- Test system: Bacteria
- assay_procedure: Inhibition of bacteria PDC-3 assessed as half life using nitrocefin as substrate
measured_parameter: T1/2 (min)

1. N#C[C@@H]1CC[C@@H]2CN1C(=O)N2OS(=O)(=O)[O-].[Na+] : 4.1
2. O=C(NNC(=O)[C@@H]1CC[C@@H]2CN1C(=O)N2OS(=O)(=O)O)[C@@H]1CCNC1 : 2.9
3. O.O=C(NC1CCNCC1)[C@@H]1CC[C@@H]2CN1C(=O)N2OS(=O)(=O)O : 12.8
4. NC(=O)[C@@H]1CC[C@@H]2CN1C(=O)N2OS(=O)(=O)[O-].[Na+] [AVIBACTAM SODIUM] : 14.4
5. O=C(NNC(=O)[C@@H]1CC[C@@H]2CN1C(=O)N2OS(=O)(=O)O)[C@@H]1CCCNC1 : 3.3
